biological target: ΔF508-CFTR (Homo sapiens, UniProt P13569, DEL508-508); construct: host or cells: CFBE41o-, doxycycline-inducible; test: CFTR cell surface levels using HRP-tagged ΔF508-CFTR expressing CFBE cells, in the presence of a co-corrector; format: cell-based; conditions: HRP-tagged ΔF508-CFTR CFBE cells, in the presence of 3 μM co-corrector
Sequence (P13569 with tags, fused parts or gaps DEL508-508): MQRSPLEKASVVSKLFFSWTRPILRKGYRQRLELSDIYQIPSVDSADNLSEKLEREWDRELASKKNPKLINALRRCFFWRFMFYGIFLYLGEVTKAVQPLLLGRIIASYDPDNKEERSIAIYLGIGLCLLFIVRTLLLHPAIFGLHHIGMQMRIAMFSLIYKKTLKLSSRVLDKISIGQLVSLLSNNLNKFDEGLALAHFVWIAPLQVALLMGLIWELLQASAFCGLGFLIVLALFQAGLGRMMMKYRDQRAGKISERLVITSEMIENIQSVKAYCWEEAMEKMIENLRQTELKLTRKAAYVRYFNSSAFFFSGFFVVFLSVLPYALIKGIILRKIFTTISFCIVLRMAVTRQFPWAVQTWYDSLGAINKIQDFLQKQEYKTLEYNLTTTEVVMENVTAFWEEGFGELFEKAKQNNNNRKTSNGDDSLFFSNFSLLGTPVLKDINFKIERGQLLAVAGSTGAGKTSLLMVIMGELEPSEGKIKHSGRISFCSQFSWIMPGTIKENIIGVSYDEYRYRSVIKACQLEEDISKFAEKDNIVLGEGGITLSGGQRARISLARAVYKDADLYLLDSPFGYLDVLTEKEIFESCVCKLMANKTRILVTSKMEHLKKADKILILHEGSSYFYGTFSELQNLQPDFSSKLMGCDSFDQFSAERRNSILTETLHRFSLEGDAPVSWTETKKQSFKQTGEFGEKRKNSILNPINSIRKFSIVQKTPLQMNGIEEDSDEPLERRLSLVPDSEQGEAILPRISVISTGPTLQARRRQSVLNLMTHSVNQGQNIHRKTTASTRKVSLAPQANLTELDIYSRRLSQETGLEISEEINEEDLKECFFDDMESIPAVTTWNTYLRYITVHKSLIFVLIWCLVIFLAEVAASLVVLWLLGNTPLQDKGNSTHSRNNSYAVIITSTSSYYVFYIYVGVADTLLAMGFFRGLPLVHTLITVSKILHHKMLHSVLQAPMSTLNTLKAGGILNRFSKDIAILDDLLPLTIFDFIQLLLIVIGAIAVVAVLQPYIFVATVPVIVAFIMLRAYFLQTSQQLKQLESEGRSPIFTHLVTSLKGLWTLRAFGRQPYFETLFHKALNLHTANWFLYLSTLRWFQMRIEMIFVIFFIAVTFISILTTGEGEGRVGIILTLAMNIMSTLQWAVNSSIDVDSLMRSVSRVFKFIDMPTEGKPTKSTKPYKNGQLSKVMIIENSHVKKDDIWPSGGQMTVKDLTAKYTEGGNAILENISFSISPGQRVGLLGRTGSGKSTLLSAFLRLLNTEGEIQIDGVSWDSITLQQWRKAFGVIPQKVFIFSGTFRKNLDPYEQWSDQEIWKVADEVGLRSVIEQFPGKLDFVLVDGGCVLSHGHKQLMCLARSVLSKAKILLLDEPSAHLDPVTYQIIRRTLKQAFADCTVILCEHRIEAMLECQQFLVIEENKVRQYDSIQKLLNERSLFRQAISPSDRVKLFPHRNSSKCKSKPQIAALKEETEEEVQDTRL
Quick reference for % Activation among some compounds
// units = %; emit number, no label

>  <COMPOUND>
COCC1CCN(c2cc(C(=O)NS(C)(=O)=O)nc3c2c(C2CCC2)nn3-c2ccc(F)cc2)CC1 [Compound 316]

>  <% Activation, %>
555.55

$$$$
>  <COMPOUND>
COC1CC(CN2CCC(c3cc(C(=O)NS(C)(=O)=O)nc4c3c(C3CCC3)nn4-c3ccc(F)cc3)CC2)C(OC)O1 (centres unmarked) [Compound 602]

>  <% Activation, %>
359.1

$$$$

Which % Activation is listed for COC1CN(C2CCN(c3cc(C(=O)NS(C)(=O)=O)nc4c3c(C3CCC3)nn4-c3ccc(F)cc3)CC2)C1 [Compound 585] ?
509.7

Also check CS(=O)(=O)NC(=O)c1cc(N2CCN(CC(F)(F)F)CC2)c2c(C3CCC3)nn(-c3ccccc3)c2n1 [Compound 329]
318.4

Also check COCC1CCN(c2cc(C(=O)NS(=O)(=O)CCNC(=O)OCc3ccccc3)nc3c2c(C2CCC2)nn3-c2ccccc2)CC1 [Compound 373]
580.5

---

Quick reference for EC50 among some compounds
biological target: ΔF508-CFTR (Homo sapiens, UniProt P13569, DEL508-508); construct: host or cells: CFBE41o-, doxycycline-inducible; assay: CFTR cell surface levels using HRP-tagged ΔF508-CFTR expressing CFBE cells, in the presence of a co-corrector; format: cell-based; conditions: HRP-tagged ΔF508-CFTR CFBE cells, in the presence of 3 μM co-corrector; read-out: EC50
// units = µM; emit number, no label

The following compounds have reported results that may help.
>  <SMILES_STRING>
O=C(c1cc(N2CCC(N3CCOCC3)CC2)c2c(C3CCC3)nn(-c3ccccc3)c2n1)N1CCCS1(=O)=O

>  <SYSTEM>
ΔF508-CFTR (Homo sapiens, UniProt P13569, DEL508-508)

>  <READING_UNIT>
µM

>  <EC50>
0.101

$$$$
>  <SMILES_STRING>
CC(C)N1CCN(C2CCN(c3cc(C(=O)NS(=O)(=O)N4CCC4)nc4c3c(C3CCC3)nn4-c3ccc(F)cc3)CC2)CC1

>  <SYSTEM>
ΔF508-CFTR (Homo sapiens, UniProt P13569, DEL508-508)

>  <READING_UNIT>
µM

>  <EC50>
0.128

$$$$

Okay, next one:
Which EC50 is listed for `COC[C@H]1CCCN1C1CCN(S(=O)(=O)NC(=O)c2cc(N3CCC(CN4CCCC4)CC3)c3c(C4CCC4)nn(-c4ccccc4)c3n2)CC1` ?
0.92

---

target: ΔF508-CFTR (Homo sapiens, UniProt P13569, DEL508-508); construct: host or cells: CFBE41o-, doxycycline-inducible; assay: CFTR cell surface levels using HRP-tagged ΔF508-CFTR expressing CFBE cells, intrinsic corrector capacity; assay type: cell-based; settings: HRP-tagged ΔF508-CFTR expressing CFBE41o- cells; compound alone (intrinsic corrector capacity); 20 hours at 33° C.; read-out: EC50
READOUT_TYPE: EC50 (nM)
// units = nM; emit number, no label

The following compounds have reported results that may help.
>  <COMPOUND>
CS(=O)(=O)NC(=O)c1cc(OCC2CCCO2)c2c(C3CCC3)nn(-c3ccccc3)c2n1 (centres unmarked) [Compound 283]

>  <MEASURED>
477

$$$$
>  <COMPOUND>
CN(C1CCOCC1)C1CCN(c2cc(C(=O)NS(=O)(=O)N(C)C)nc3c2c(C2CCC2)nn3-c2ccc(F)cc2)CC1 [Compound 528]

>  <MEASURED>
859

$$$$
>  <COMPOUND>
COCC1CN(C2CCN(c3cc(C(=O)NS(=O)(=O)N(C)C)nc4c3c(C3CCC3)nn4-c3ccc(F)cc3)CC2)CCO1 (centres unmarked) [Compound 379]

>  <MEASURED>
141

$$$$

Which EC50 is listed for CC(C)c1nn(-c2cccc(N3CCOCC3)c2)c2nc(C(=O)NS(C)(=O)=O)cc(-c3ccc(N4CCC(C#N)CC4)nc3)c12 [Compound 85] ?
421

Also check CS(=O)(=O)NC(=O)c1cc(OC[C@@H](F)C2CCOCC2)c2c(C3CCC3)nn(-c3ccccc3)c2n1 [Compound 199]
481

Also check CC(C)c1nn(-c2ccc(F)cc2)c2nc(C(=O)NS(C)(=O)=O)cc(N3CCC(N(C)C)CC3)c12 [Compound 319]
298

Also check COCC1CCN(c2cc(C(=O)NS(C)(=O)=O)nc3c2c(C(C)C)nn3CC(C)C)CC1 [Compound 264]
969

---

target: ΔF508-CFTR (Homo sapiens, UniProt P13569, DEL508-508); construct: host or cells: CFBE41o-, doxycycline-inducible; test: CFTR cell surface levels using HRP-tagged ΔF508-CFTR expressing CFBE cells, intrinsic corrector capacity; format: cell-based; conditions: HRP-tagged ΔF508-CFTR expressing CFBE41o- cells; compound alone (intrinsic corrector capacity); 20 hours at 33° C.; read-out: EC50
READOUT_TYPE: EC50 (µM)
// units = µM; emit number, no label

Which EC50 is listed for CC(C)Oc1nn(C2CCCCC2)c2nc(C(=O)NS(=O)(=O)N(C)C)cc(-c3ccc(CN4CCOCC4)cc3)c12 [Compound 406] ?
0.241

Also check Cc1nn(-c2cccc(C(F)(F)F)c2)c2nc(C(=O)NS(C)(=O)=O)cc(-c3ccc(N4CCOCC4)nc3)c12 [Compound 57]
1.02

---

biological target: ΔF508-CFTR (Homo sapiens, UniProt P13569, DEL508-508); construct: host or cells: CFBE41o-, doxycycline-inducible; assay: CFTR cell surface levels using HRP-tagged ΔF508-CFTR expressing CFBE cells, intrinsic corrector capacity; format: cell-based; conditions: HRP-tagged ΔF508-CFTR expressing CFBE41o- cells; compound alone (intrinsic corrector capacity); 20 hours at 33° C.; read-out: EC50
Quick reference for EC50 among some molecules
// units = nM; emit number, no label

>  <MOLECULE>
COCC1CCN(c2cc(C(=O)NS(C)(=O)=O)nc3c2c(C(C)C)nn3-c2cc(C)nc(C)c2)CC1

>  <SYSTEM>
ΔF508-CFTR (Homo sapiens, UniProt P13569, DEL508-508)

>  <READING_UNIT>
nM

>  <EC50>
1490

$$$$
>  <MOLECULE>
CC(C)c1nn(-c2cccc(N3CCOCC3)c2)c2nc(C(=O)NS(C)(=O)=O)cc(-c3cnc(N4CCC(C#N)CC4)nc3)c12

>  <SYSTEM>
ΔF508-CFTR (Homo sapiens, UniProt P13569, DEL508-508)

>  <READING_UNIT>
nM

>  <EC50>
410

$$$$
>  <MOLECULE>
O=C(NS(=O)(=O)C1CCOC1)c1cc(N2CCC(N3CCCCC3)CC2)c2c(C3CCC3)nn(-c3ccc(F)cc3)c2n1 (stereo not shown)

>  <SYSTEM>
ΔF508-CFTR (Homo sapiens, UniProt P13569, DEL508-508)

>  <READING_UNIT>
nM

>  <EC50>
1700

$$$$
>  <MOLECULE>
COCC1CCN(c2cc(C(=O)NS(C)(=O)=O)nc3c2c(C(C)C)nn3CC2CCC2)CC1

>  <SYSTEM>
ΔF508-CFTR (Homo sapiens, UniProt P13569, DEL508-508)

>  <READING_UNIT>
nM

>  <EC50>
598

$$$$
>  <MOLECULE>
CC(C)c1nn(-c2cccc(N(C)C)c2)c2nc(C(=O)NS(C)(=O)=O)cc(-c3ccc(N(C)C4CCOCC4)nc3)c12

>  <SYSTEM>
ΔF508-CFTR (Homo sapiens, UniProt P13569, DEL508-508)

>  <READING_UNIT>
nM

>  <EC50>
646

$$$$

Which EC50 is listed for `CC(C)c1nn(C2CCCCC2)c2nc(C(=O)NS(C)(=O)=O)cc(-c3ccc(N(C)C)nc3)c12` ?
732

Also check Cc1nn(-c2ccccc2)c2nc(C(=O)NS(C)(=O)=O)cc(-c3ccc(N4CCC(N(C)C)C4)cc3)c12 (stereo not shown)
2480

---

biological target: ΔF508-CFTR (Homo sapiens, UniProt P13569, DEL508-508); construct: host or cells: CFBE41o-, doxycycline-inducible; assay: CFTR cell surface levels using HRP-tagged ΔF508-CFTR expressing CFBE cells, intrinsic corrector capacity; format: cell-based; set-up: concentration or dose not given beside the values; settings: HRP-tagged ΔF508-CFTR expressing CFBE41o- cells; compound alone (intrinsic corrector capacity); 20 hours at 33° C.
Classification field: enter true for % Activation values not below 200%, false for values below it.

See these solved cases before continuing.
>  <COMPOUND>
COCC1CCN(c2cc(C(=O)NS(=O)(=O)C3CC3)nc3c2c(C2CCC2)nn3-c2ccccc2)CC1

>  <DISCRETE_LABEL>
true

$$$$
>  <COMPOUND>
CC(C)c1nn(-c2cccc(N3CCOCC3)c2)c2nc(C(=O)NS(C)(=O)=O)cc(-c3cnc(N(C)C)nc3)c12

>  <DISCRETE_LABEL>
true

$$$$
>  <COMPOUND>
CC(=O)N1CCC(COc2cc(C(=O)NS(C)(=O)=O)nc3c2c(C2CCC2)nn3-c2ccccc2)CC1

>  <DISCRETE_LABEL>
false

$$$$
>  <COMPOUND>
Cc1nn(C2CCCCC2)c2nc(C(=O)NS(=O)(=O)C3CC3)cc(-c3ccc(N4CCOCC4)cc3)c12

>  <DISCRETE_LABEL>
false

$$$$
>  <COMPOUND>
CC(C)c1nn(-c2cccc(N3CCOCC3)c2)c2nc(C(=O)NS(C)(=O)=O)cc(-c3ccc(N(C)C4CCOCC4)nc3)c12

>  <DISCRETE_LABEL>
true

$$$$

Is reported % Activation greater than or equal to 200% here: CS(=O)(=O)NC(=O)c1cc(OCC2CCC(F)(F)C2)c2c(C3CCC3)nn(-c3ccccc3)c2n1 (stereo not shown)
false

Also check `CN(C)S(=O)(=O)NC(=O)c1cc(CN2CCC(N3CCOCC3)CC2)c2c(C3CCC3)nn(-c3ccc(F)cc3)c2n1`
false
